- experimental.system: recombinant Trypanosoma brucei AOX (rTAO) (Trypanosoma brucei brucei, UniProt Q26710)
- Sequence (Q26710 25-329): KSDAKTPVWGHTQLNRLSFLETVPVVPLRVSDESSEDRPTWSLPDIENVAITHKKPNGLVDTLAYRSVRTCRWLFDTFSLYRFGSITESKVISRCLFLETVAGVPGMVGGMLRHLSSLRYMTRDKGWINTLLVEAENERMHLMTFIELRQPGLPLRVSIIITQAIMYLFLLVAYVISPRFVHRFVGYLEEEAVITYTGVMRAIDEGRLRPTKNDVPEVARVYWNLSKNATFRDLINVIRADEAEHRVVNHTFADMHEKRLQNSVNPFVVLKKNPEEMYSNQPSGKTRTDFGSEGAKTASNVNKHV
- assay.text: biochemical
- condition.parameters: rTAO IC50, membrane-bound protein, 300 μM NADH, MOPS buffer pH 7.5
measurement.label: IC50 (µM)
Answers are plain numbers, in µM.

Task: In one line, give reported IC50 of the entry CCCCCCCCOC(=O)c1cc(O)c(O)c(O)c1 [OG, octylgallate] .
Output: 0.417

###

- experimental.system: Arabidopsis thaliana AOX1A (rAtAOX1A) (Arabidopsis thaliana, UniProt Q39219)
- Sequence (Q39219 63-354): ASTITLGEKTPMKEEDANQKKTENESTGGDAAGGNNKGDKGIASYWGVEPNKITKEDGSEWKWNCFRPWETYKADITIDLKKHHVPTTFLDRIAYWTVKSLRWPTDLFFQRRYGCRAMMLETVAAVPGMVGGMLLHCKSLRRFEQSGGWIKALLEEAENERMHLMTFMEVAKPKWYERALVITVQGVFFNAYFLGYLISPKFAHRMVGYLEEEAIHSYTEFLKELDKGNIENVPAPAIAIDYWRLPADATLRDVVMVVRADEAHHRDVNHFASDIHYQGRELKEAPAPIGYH
- Type: biochemical
- condition.parameters: 10 mM effector, membrane-bound protein, 1 mM NADH, 1 mM KCN (Figure 5C)
measurement.label: Fold change of oxygen consumption rate of rAtAOX1A vs control (fold)
One number for each entry, in fold.

Nc1ncnc2c1ncn2[C@@H]1O[C@H](COP(=O)(O)OP(=O)(O)O)[C@@H](O)[C@H]1O [ADP, adenosine diphosphate]    1.4

Continue with the compound presented below.
Task: Give measured Fold change of oxygen consumption rate of rAtAOX1A vs control for Nc1nc2c(ncn2[C@@H]2O[C@H](COP(=O)(O)OP(=O)(O)O)[C@@H](O)[C@H]2O)c(=O)[nH]1 [GDP] (Arabidopsis thaliana AOX1A (rAtAOX1A) (Arabidopsis thaliana, UniProt Q39219)).
Output: 1.4

###

- experimental.system: Arabidopsis thaliana AOX1A (rAtAOX1A) (Arabidopsis thaliana)
pIC50: −log10 of the molar value.
Each entry gets f if its pIC50 stays under 8, and t if its pIC50 is 8 or above.

The examples below pair each entry with its known result.
CCCCCCCCOC(=O)c1cc(O)c(O)c(O)c1 [OG, octylgallate]    f
O=C(NO)c1ccccc1O [SHAM, salicylic hydroxamic acid]    f

Next:
Task: Assess whether reported pIC50 for `CC(C)=CCc1c(O)c(Cl)c(C)c(C=O)c1O` sits at 8 or higher.
Output: t

###

- experimental.system: UniProtKB Q39219
- Assay type: biochemical
- condition.parameters: 10 mM effector, membrane-bound protein, 1 mM NADH, 1 mM KCN (Figure 5)
measurement.label: Effect on oxygen consumption rate of rAtAOX1A (in words)

CCC(=O)O    no stimulation
CC(=O)O    no stimulation
O=C(O)CCC(=O)O [succinate]    dramatically promoted
O=C(O)CC(=O)C(=O)O [oxaloacetate]    dramatically promoted
